Each recorded value in this set is attributed to patent US6849652B1.

STUDY SYSTEM: COX-2 (Mus musculus)
Construct: host or cells: RAW 264.7 cells, aspirin-pretreated, then induced with interferon and LPS
Sequence (Q05769 18-604): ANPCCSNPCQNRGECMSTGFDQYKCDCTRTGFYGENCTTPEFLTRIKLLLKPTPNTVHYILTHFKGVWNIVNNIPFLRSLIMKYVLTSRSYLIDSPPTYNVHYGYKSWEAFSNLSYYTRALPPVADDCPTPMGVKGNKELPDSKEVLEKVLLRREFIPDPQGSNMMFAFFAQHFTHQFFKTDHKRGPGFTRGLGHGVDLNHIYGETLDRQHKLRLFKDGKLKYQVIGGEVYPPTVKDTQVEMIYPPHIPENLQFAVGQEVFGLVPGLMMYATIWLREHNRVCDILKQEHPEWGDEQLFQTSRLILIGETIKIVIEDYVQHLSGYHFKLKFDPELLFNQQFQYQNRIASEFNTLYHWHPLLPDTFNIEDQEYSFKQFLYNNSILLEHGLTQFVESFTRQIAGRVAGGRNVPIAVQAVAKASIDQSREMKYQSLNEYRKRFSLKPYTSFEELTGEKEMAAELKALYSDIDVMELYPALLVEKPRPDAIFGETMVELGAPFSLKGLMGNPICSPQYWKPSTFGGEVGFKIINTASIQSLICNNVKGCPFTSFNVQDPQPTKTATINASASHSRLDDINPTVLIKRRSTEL
MEASUREMENT PROTOCOL: Assay for the COX-2 inhibitory activity using RAW 264.7 cell line (PGE2 inhibition)
Assay type: cell-based
PARTICULARS: RAW264.7, RAW 264.7 cells, test compound 10 nM, interferon/LPS 18 hours, read-out: Cyclooxygenase (COX) Inhibition (%) COX-2 (10 nM)
METRIC NAME: inhibition at 0.01 µM (%)

| TEST SMILES | METRIC NAME | UNITS SYMBOL | MEAS VALUE |
| --- | --- | --- | --- |
| CS(=O)(=O)c1ccc(-n2nc(C(F)(F)F)nc2-c2ccc(Cl)cc2)cc1F | inhibition at 0.01 µM | % | 22.3 |
| CCOc1ccc(-c2nc(C(F)(F)F)nn2-c2ccc(S(C)(=O)=O)c(F)c2)cc1 | inhibition at 0.01 µM | % | 15.6 |
| COc1ccc(-c2nc(C(F)(F)F)nn2-c2ccc(S(C)(=O)=O)c(F)c2)cc1 | inhibition at 0.01 µM | % | 41.2 |
| CS(=O)(=O)c1ccc(-n2nc(C(F)(F)F)nc2-c2cccc(F)c2)cc1F | inhibition at 0.01 µM | % | 15.1 |
| CS(=O)(=O)c1ccc(-n2nc(C(F)(F)F)nc2-c2ccc3c(c2)OCO3)cc1F | inhibition at 0.01 µM | % | 41.5 |
| CS(=O)(=O)c1ccc(-n2nc(C(F)(F)F)nc2-c2cccc(Cl)c2)cc1F | inhibition at 0.01 µM | % | 16.4 |
| CS(=O)(=O)c1ccc(-n2nc(C(F)(F)F)nc2-c2ccccc2)cc1F | inhibition at 0.01 µM | % | 13.7 |
| CS(=O)(=O)c1ccc(-n2nc(C(F)(F)F)nc2-c2ccc(F)c(F)c2)cc1F | inhibition at 0.01 µM | % | 15.5 |
| Cc1ccc(-c2nc(C(F)(F)F)nn2-c2ccc(S(C)(=O)=O)c(F)c2)cc1 | inhibition at 0.01 µM | % | 19 |
| CS(=O)(=O)c1ccc(-n2nc(C(F)(F)F)nc2-c2ccc3ccccc3c2)cc1F | inhibition at 0.01 µM | % | 13.5 |
| CS(=O)(=O)c1ccc(-n2nc(C(F)(F)F)nc2-c2ccc(F)cc2)cc1F | inhibition at 0.01 µM | % | 18.5 |
| CS(=O)(=O)c1ccc(-n2nc(C(F)(F)F)nc2-c2ccc(Br)cc2)cc1F | inhibition at 0.01 µM | % | 13.7 |
| COc1ccc(-c2nc(C(F)(F)F)nn2-c2ccc(S(C)(=O)=O)c(F)c2)cc1F | inhibition at 0.01 µM | % | 16.2 |
| Cc1cccc(-c2nc(C(F)(F)F)nn2-c2ccc(S(C)(=O)=O)c(F)c2)c1 | inhibition at 0.01 µM | % | 27.8 |

----------
STUDY SYSTEM: COX-1 (Homo sapiens, UniProt P23219)
Construct: host or cells: U-937 human lymphoma cells
Sequence (P23219 24-599): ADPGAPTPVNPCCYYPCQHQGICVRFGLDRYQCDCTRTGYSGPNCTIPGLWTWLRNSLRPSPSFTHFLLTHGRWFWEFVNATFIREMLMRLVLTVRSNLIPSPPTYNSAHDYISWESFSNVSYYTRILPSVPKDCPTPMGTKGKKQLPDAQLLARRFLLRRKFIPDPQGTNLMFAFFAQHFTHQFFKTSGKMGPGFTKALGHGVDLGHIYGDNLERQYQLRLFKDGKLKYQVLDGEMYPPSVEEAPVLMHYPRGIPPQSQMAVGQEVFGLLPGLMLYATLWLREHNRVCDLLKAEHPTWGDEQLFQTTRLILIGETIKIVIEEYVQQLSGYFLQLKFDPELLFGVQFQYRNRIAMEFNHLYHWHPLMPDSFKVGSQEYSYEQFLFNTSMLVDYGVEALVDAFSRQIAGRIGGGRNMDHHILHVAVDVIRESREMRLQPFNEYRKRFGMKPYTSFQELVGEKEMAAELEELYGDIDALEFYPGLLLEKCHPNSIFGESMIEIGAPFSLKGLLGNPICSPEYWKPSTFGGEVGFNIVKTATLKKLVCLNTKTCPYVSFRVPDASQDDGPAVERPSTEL
MEASUREMENT PROTOCOL: Assay for the COX-1 inhibitory activity using U-937 (PGE2 inhibition)
Type: cell-based
PARTICULARS: U-937 human lymphoma cells, test compound 1 μM, PGE2 vs DMSO control; read-out: Cyclooxygenase (COX) Inhibition (%) COX-1 (1 μM)
Classify by inhibition at 1 µM. Ranges: L: < 20%; M: ≥ 20% and < 30%; H: ≥ 30%

| TEST SMILES | STUDY SYSTEM | ANSWER LABEL |
| --- | --- | --- |
| CS(=O)(=O)c1ccc(-n2nc(C(F)(F)F)nc2-c2ccc3ccccc3c2)cc1F | COX-1 (Homo sapiens, UniProt P23219) | H |
| CS(=O)(=O)c1ccc(-n2nc(C(F)(F)F)nc2-c2ccccc2)cc1F | COX-1 (Homo sapiens, UniProt P23219) | H |
| COc1ccc(-c2nc(C(F)(F)F)nn2-c2ccc(S(C)(=O)=O)c(F)c2)cc1 | COX-1 (Homo sapiens, UniProt P23219) | L |
| CS(=O)(=O)c1ccc(-n2nc(C(F)(F)F)nc2-c2ccc(F)c(F)c2)cc1F | COX-1 (Homo sapiens, UniProt P23219) | M |
| CS(=O)(=O)c1ccc(-n2nc(C(F)(F)F)nc2-c2ccc3c(c2)OCO3)cc1F | COX-1 (Homo sapiens, UniProt P23219) | L |
| CCOc1ccc(-c2nc(C(F)(F)F)nn2-c2ccc(S(C)(=O)=O)c(F)c2)cc1 | COX-1 (Homo sapiens, UniProt P23219) | M |
| CS(=O)(=O)c1ccc(-n2nc(C(F)(F)F)nc2-c2ccc(F)cc2)cc1F | COX-1 (Homo sapiens, UniProt P23219) | L |
| Cc1ccc(-c2nc(C(F)(F)F)nn2-c2ccc(S(C)(=O)=O)c(F)c2)cc1 | COX-1 (Homo sapiens, UniProt P23219) | M |
| Cc1cccc(-c2nc(C(F)(F)F)nn2-c2ccc(S(C)(=O)=O)c(F)c2)c1 | COX-1 (Homo sapiens, UniProt P23219) | M |
| COc1ccc(-c2nc(C(F)(F)F)nn2-c2ccc(S(C)(=O)=O)c(F)c2)cc1F | COX-1 (Homo sapiens, UniProt P23219) | M |
| CS(=O)(=O)c1ccc(-n2nc(C(F)(F)F)nc2-c2cccc(Cl)c2)cc1F | COX-1 (Homo sapiens, UniProt P23219) | L |
| CS(=O)(=O)c1ccc(-n2nc(C(F)(F)F)nc2-c2ccc(Cl)cc2)cc1F | COX-1 (Homo sapiens, UniProt P23219) | M |
| CS(=O)(=O)c1ccc(-n2nc(C(F)(F)F)nc2-c2cccc(F)c2)cc1F | COX-1 (Homo sapiens, UniProt P23219) | M |
